tested on: HeLa Kyoto; test: thermal stability score vs G1/S (z-score of summed log2 fold changes over temperatures); higher = more thermally stable than in G1/S; conditions: cell cycle stage: early G1 (4.5 h after nocodazole release)
Label rule, in plain words: thermal stability score of -0.9 and up is true, under -0.9 is false.

Example cases with answers are listed next.
>>> class_name("MAEQATKSVLFVCLGNICRSPIAEAVFRKLVTDQNISENWRVDSAATSGYEIGNPPDYRGQSCMKRHGIPMSHVARQITKEDFATFDYILCMDESNLRDLNRKSNQVKTCKAKIELLGSYDPQKQLIIEDPYYGNDSDFETVYQQCVRCCRAFLEKAH [ACP1]")
"true"
>>> class_name("MANRTVKDAHSIHGTNPQYLVEKIIRTRIYESKYWKEECFGLTAELVVDKAMELRFVGGVYGGNIKPTPFLCLTLKMLQIQPEKDIIVEFIKNEDFKYVRMLGALYMRLTGTAIDCYKYLEPLYNDYRKIKSQNRNGEFELMHVDEFIDELLHSERVCDIILPRLQKRYVLEEAEQLEPRVSALEEDMDDVESSEEEEEEDEKLERVPSPDHRRRSYRDLDKPRRSPTLRYRRSRSRSPRRRSRSPKRRSPSPRRERHRSKSPRRHRSRSRDRRHRSRSKSPGHHRSHRHRSHSKSPERSKKSHKKSRRGNE [PRPF38A]")
"true"
>>> class_name("MSGQRVDVKVVMLGKEYVGKTSLVERYVHDRFLVGPYQNTIGAAFVAKVMSVGDRTVTLGIWDTAGSERYEAMSRIYYRGAKAAIVCYDLTDSSSFERAKFWVKELRSLEEGCQIYLCGTKSDLLEEDRRRRRVDFHDVQDYADNIKAQLFETSSKTGQSVDELFQKVAEDYVSVAAFQVMTEDKGVDLGQKPNPYFYSCCHH [RAB24]")
"true"
>>> class_name("MAAMASLGALALLLLSSLSRCSAEACLEPQITPSYYTTSDAVISTETVFIVEISLTCKNRVQNMALYADVGGKQFPVTRGQDVGRYQVSWSLDHKSAHAGTYEVRFFDEESYSLLRKAQRNNEDISIIPPLFTVSVDHRGTWNGPWVSTEVLAAAIGLVIYYLAFSAKSHIQA [SSR4]")
"true"
>>> class_name("MAGAENWPGQQLELDEDEASCCRWGAQHAGARELAALYSPGKRLQEWCSVILCFSLIAHNLVHLLLLARWEDTPLVILGVVAGALIADFLSGLVHWGADTWGSVELPIVGKAFIRPFREHHIDPTAITRHDFIETNGDNCLVTLLPLLNMAYKFRTHSPEALEQLYPWECFVFCLIIFGTFTNQIHKWSHTYFGLPRWVTLLQDWHVILPRKHHRIHHVSPHETYFCITTGWLNYPLEKIGFWRRLEDLIQGLTGEKPRADDMKWAQKIK [TMEM189]")
"false"
>>> class_name("MSDSGEQNYGERESRSASRSGSAHGSGKSARHTPARSRSKEDSRRSRSKSRSRSESRSRSRRSSRRHYTRSRSRSRSHRRSRSRSYSRDYRRRHSHSHSPMSTRRRHVGNRANPDPNCCLGVFGLSLYTTERDLREVFSKYGPIADVSIVYDQQSRRSRGFAFVYFENVDDAKEAKERANGMELDGRRIRVDFSITKRPHTPTPGIYMGRPTYGSSRRRDYYDRGYDRGYDDRDYYSRSYRGGGGGGGGWRAAQDRDQIYRRRSPSPYYSRGGYRSRSRSRSYSPRRY [TRA2B]")
"false"
>>> class_name("MVSVINTVDTSHEDMIHDAQMDYYGTRLATCSSDRSVKIFDVRNGGQILIADLRGHEGPVWQVAWAHPMYGNILASCSYDRKVIIWREENGTWEKSHEHAGHDSSVNSVCWAPHDYGLILACGSSDGAISLLTYTGEGQWEVKKINNAHTIGCNAVSWAPAVVPGSLIDHPSGQKPNYIKRFASGGCDNLIKLWKEEEDGQWKEEQKLEAHSDWVRDVAWAPSIGLPTSTIASCSQDGRVFIWTCDDASSNTWSPKLLHKFNDVVWHVSWSITANILAVSGGDNKVTLWKESVDGQWVCISDVNKGQGSVSASVTEGQQNEQ [SEC13]")
"true"
>>> class_name("MASGVTVNDEVIKVFNDMKVRKSSTQEEIKKRKKAVLFCLSDDKRQIIVEEAKQILVGDIGDTVEDPYTSFVKLLPLNDCRYALYDATYETKESKKEDLVFIFWAPESAPLKSKMIYASSKDAIKKKFTGIKHEWQVNGLDDIKDRSTLGEKLGGNVVVSLEGKPL [CFL2]")
"false"
>>> class_name("MADGKAGDEKPEKSQRAGAAGGPEEEAEKPVKTKTVSSSNGGESSSRSAEKRSAEEEAADLPTKPTKISKFGFAIGSQTTKKASAISIKLGSSKPKETVPTLAPKTLSVAAAFNEDEDSEPEEMPPEAKMRMKNIGRDTPTSAGPNSFNKGKHGFSDNQKLWERNIKSHLGNVHDQDN [PCNP]")
"false"
>>> class_name("MAFLRSMWGVLSALGRSGAELCTGCGSRLRSPFSFVYLPRWFSSVLASCPKKPVSSYLRFSKEQLPIFKAQNPDAKTTELIRRIAQRWRELPDSKKKIYQDAYRAEWQVYKEEISRFKEQLTPSQIMSLEKEIMDKHLKRKAMTKKKELTLLGKPKRPRSAYNVYVAERFQEAKGDSPQEKLKTVKENWKNLSDSEKELYIQHAKEDETRYHNEMKSWEEQMIEVGRKDLLRRTIKKQRKYGAEEC [TFAM]")
"false"

[in] API: above_or_equal(metric=thermal stability score, cutoff=-0.9) for item MSGSMATAEASGSDGKGQEVETSVTYYRLEEVAKRNSLKELWLVIHGRVYDVTRFLNEHPGGEEVLLEQAGVDASESFEDVGHSSDAREMLKQYYIGDIHPSDLKPESGSKDPSKNDTCKSCWAYWILPIIGAVLLGFLYRYYTSESKSS [CYB5B]
[out] true

* * *

test system: HeLa Kyoto; experiment: melting temperature (median over replicates), in situ; higher = more thermally stable; details: cell cycle stage: G1/S
Task for the reader: assign each of the following sequences its reported melting temperature.
One number for each entry, in °C.

Recorded results for 3 sequences are shown here.
>>> value_measured("MAGKAHRLSAEERDQLLPNLRAVGWNELEGRDAIFKQFHFKDFNRAFGFMTRVALQAEKLDHHPEWFNVYNKVHITLSTHECAGLSERDINLASFIEQVAVSMT [PCBD1]")
54.6
>>> value_measured("MAAPPEPGEPEERKSLKLLGFLDVENTPCARHSILYGSLGSVVAGFGHFLFTSRIRRSCDVGVGGFILVTLGCWFHCRYNYAKQRIQERIAREEIKKKILYEGTHLDPERKHNGSSSN [COX20]")
55.3
>>> value_measured("MTHSLVCPETVSRVSSVLNRNTRQFGKKHLFDQDEETCWNSDQGPSQWVTLEFPQLIRVSQLQIQFQGGFSSRRGCLEGSQGTQALHKIVDFYPEDNNSLQTFPIPAAEVDRLKVTFEDATDFFGRVVIYHLRVLGEKV [NR2C2AP]")
53.3

[in] Requested field: melting temperature. Item: MSSSVEQKKGPTRQRKCGFCKSNRDKECGQLLISENQKVAAHHKCMLFSSALVSSHSDNESLGGFSIEDVQKEIKRGTKLMCSLCHCPGATIGCDVKTCHRTYHYHCALHDKAQIREKPSQGIYMVYCRKHKKTAHNSEADLEESFNEHELEPSSPKSKKKSRKGRPRKTNFKGLSEDTRSTSSHGTDEMESSSYRDRSPHRSSPSDTRPKCGFCHVGEEENEARGKLHIFNAKKAAAHYKCMLFSSGTVQLTTTSRAEFGDFDIKTVLQEIKRGKRMKCTLCSQPGATIGCEIKACVKTYHYHCGVQDKAKYIENMSRGIYKLYCKNHSGNDERDEEDEERESKSRGKVEIDQQQLTQQQLNGN [PHF6]
[out] 48.6

* * *

tested on: HeLa Kyoto; test: melting temperature (median over replicates), in situ; higher = more thermally stable; settings: cell cycle stage: G1/S
Test Readout: melting temperature (°C)
Numbers only, in °C.

>>> value_measured("MGASARLLRAVIMGAPGSGKGTVSSRITTHFELKHLSSGDLLRDNMLRGTEIGVLAKAFIDQGKLIPDDVMTRLALHELKNLTQYSWLLDGFPRTLPQAEALDRAYQIDTVINLNVPFEVIKQRLTARWIHPASGRVYNIEFNPPKTVGIDDLTGEPLIQREDDKPETVIKRLKAYEDQTKPVLEYYQKKGVLETFSGTETNKIWPYVYAFLQTKVPQRSQKASVTP [AK3]")
54.3
>>> value_measured("MAAARATTPADGEEPAPEAEALAAARERSSRFLSGLELVKQGAEARVFRGRFQGRAAVIKHRFPKGYRHPALEARLGRRRTVQEARALLRCRRAGISAPVVFFVDYASNCLYMEEIEGSVTVRDYIQSTMETEKTPQGLSNLAKTIGQVLARMHDEDLIHGDLTTSNMLLKPPLEQLNIVLIDFGLSFISALPEDKGVDLYVLEKAFLSTHPNTETVFEAFLKSYSTSSKKARPVLKKLDEVRLRGRKRSMVG [TP53RK]")
55.1

Let us examine a further case.
[in] Requested field: melting temperature. Item: MAAPAVSGLSRQVRCFSTSVVRPFAKLVRPPVQVYGIEGRYATALYSAASKQNKLEQVEKELLRVAQILKEPKVAASVLNPYVKRSIKVKSLNDITAKERFSPLTTNLINLLAENGRLSNTQGVVSAFSTMMSVHRGEVPCTVTSASPLEEATLSELKTVLKSFLSQGQVLKLEAKTDPSILGGMIVRIGEKYVDMSVKTKIQKLGRAMREIV [ATP5O]
[out] 53.4
